Reference source for all entries: PubChem BioAssay AID1963868

- Test system: KRAS PDC tumor spheroids (HUVEC+MSC), viability
- ASSAY PROTOCOL: Anticancer human tumor 254851-301-R-J1-PDC patient-derived colon carcinoma cell line growth inhibition [KRAS2]
- CONDITION LABEL: second compound 0.316 µM; first compound 0.0316 µM; stronger effect = lower value
MEASUREMENT LABEL: viability, T/C (%)

{"columns": ["COMPOUND", "DISPLAY UNIT", "ASSAY VALUE"],
 "data": [
  ["COC(=O)c1ccc2c(C(=Nc3ccc(N(C)C(=O)CN4CCN(C)CC4)cc3)c3ccccc3)c(O)[nH]c2c1 + CNCc1ccccc1-c1csc(C(C)Nc2nc(C)nc3cc(OC)c(OC)cc23)c1", "%", 93.1],
  ["COc1cc(Nc2ncc3c(n2)-c2ccc(Cl)cc2C(c2c(F)cccc2OC)=NC3)ccc1C(=O)O + C=CC(=O)N1CCN(c2nc(OCC3CCCN3C)nc3c2CCN(c2cccc4cccc(C)c24)C3)CC1CC#N", "%", 79.4],
  ["CC(C)n1nc(-c2ccc3oc(N)nc3c2)c2c(N)ncnc21 + CC1OCC2(CCN(c3cnc(Sc4ccnc(N)c4Cl)c(N)n3)CC2)C1N", "%", 34.4],
  ["CCN1CCN(Cc2ccc(Nc3ncc(F)c(-c4cc(F)c5nc(C)n(C(C)C)c5c4)n3)nc2)CC1 + C=CC(=O)N1CCN(c2nc(OCC3CCCN3C)nc3c2CCN(c2cccc4cccc(C)c24)C3)CC1CC#N", "%", 94.2],
  ["CC1OCC2(CCN(c3cnc(Sc4ccnc(N)c4Cl)c(N)n3)CC2)C1N (stereo unspecified) + COc1cc2nc(C)nc(NC(C)c3cc(N)cc(C(F)(F)F)c3)c2cc1OC1CCOC1", "%", 105],
  ["Cn1nccc1Nc1nccc(-c2cc3c(s2)C(C)(C)N(CCN2CCOCC2)C3=O)n1 + CNCc1ccccc1-c1csc(C(C)Nc2nc(C)nc3cc(OC)c(OC)cc23)c1", "%", 90.7]
]}

###

- System: KRAS PDC tumor spheroids (HUVEC+MSC), viability
- ASSAY PROTOCOL: Anticancer human tumor 254851-301-R-J1-PDC cell line growth inhibition [KRAS2];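 further: spheroids exposed to compounds for seven days before readout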
- CONDITION LABEL: curve of first compound; second compound 0.316 µM
pIC50: −log10 of the molar value.

{"columns": ["MOLECULE", "COMPARISON OPERATOR", "pIC50"],
 "data": [
  ["COc1cc(Nc2ncc3c(n2)-c2ccc(Cl)cc2C(c2c(F)cccc2OC)=NC3)ccc1C(=O)O + C=CC(=O)N1CCN(c2nc(OCC3CCCN3C)nc3c2CCN(c2cccc4cccc(C)c24)C3)CC1CC#N", "=", 7.05],
  ["CC(C)NCC(C(=O)N1CCN(c2ncnc3c2C(C)CC3O)CC1)c1ccc(Cl)cc1 (stereo not given) + CNCc1ccccc1-c1csc(C(C)Nc2nc(C)nc3cc(OC)c(OC)cc23)c1", "<", 5.00],
  ["CC1COCCN1c1cc(-c2ccnn2C)c2ccnc(-c3ccn[nH]3)c2n1 (stereo not given) + C=CC(=O)N1CCN(c2nc(=O)n(-c3c(C)ccnc3C(C)C)c3nc(-c4c(O)cccc4F)c(F)cc23)C(C)C1", "=", 6.54],
  ["CC1(C)CCC(CN2CCN(c3ccc(C(=O)NS(=O)(=O)c4ccc(NCC5CCOCC5)c([N+](=O)[O-])c4)c(Oc4cnc5[nH]ccc5c4)c3)CC2)=C(c2ccc(Cl)cc2)C1 + C=CC(=O)N1CCN(c2nc(OCC3CCCN3C)nc3c2CCN(c2cccc4cccc(C)c24)C3)CC1CC#N", "<", 5.00],
  ["COc1cc(Nc2ncc3c(n2)-c2ccc(Cl)cc2C(c2c(F)cccc2OC)=NC3)ccc1C(=O)O + COc1cc2nc(C)nc(NC(C)c3cc(N)cc(C(F)(F)F)c3)c2cc1OC1CCOC1", "=", 7.07]
]}

###

- Test system: KRAS PDC tumor spheroids (HUVEC+MSC), viability
- ASSAY PROTOCOL: Anticancer human tumor 254851-301-R-J1-PDC cell line growth inhibition [KRAS2]; active = viability on the fitted dose curve at most 10% of control; inactive = the rest;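 further: spheroids exposed to compounds for seven days before readout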
- CONDITION LABEL: second compound 10 µM; first compound 0.000316 µM
- Source text: Multicellular complex tumor spheroid response to RAS pathway inhibitors in combination with a targeted agents in patient-derived cell lines with oncogenic KRAS variants from multiple cancer types A high-throughput screen of multi-cell type tumor spheroids was designed to identify active combinations of targeted small molecules and KRAS pathway inhibitors. […] Compounds. […] If the clinical Cmax for an agent had not been determined, the highest concentration tested was 10 microM. […]
Outcome codes: true = active, false = inactive

{"columns": ["COMPOUND", "LABEL"],
 "data": [
  ["CN(C)C/C=C/C(=O)Nc1cc2c(Nc3ccc(F)c(Cl)c3)ncnc2cc1O[C@H]1CCOC1 + CNCc1ccccc1-c1csc(C(C)Nc2nc(C)nc3cc(OC)c(OC)cc23)c1", "true"],
  ["CC(C)n1nc(-c2ccc3oc(N)nc3c2)c2c(N)ncnc21 + CC1OCC2(CCN(c3cnc(Sc4ccnc(N)c4Cl)c(N)n3)CC2)C1N", "false"],
  ["CC(=O)Nc1cccc(-n2c(=O)n(C3CC3)c(=O)c3c(Nc4ccc(I)cc4F)n(C)c(=O)c(C)c32)c1 + C=CC(=O)N1CCN(c2nc(=O)n(-c3c(C)ccnc3C(C)C)c3nc(-c4c(O)cccc4F)c(F)cc23)C(C)C1", "false"],
  ["CC(C)n1nc(-c2ccc3oc(N)nc3c2)c2c(N)ncnc21 + COc1cc2nc(C)nc(NC(C)c3cc(N)cc(C(F)(F)F)c3)c2cc1OC1CCOC1", "false"],
  ["Cn1ncnc1[C@H]1c2n[nH]c(=O)c3cc(F)cc(c23)N[C@@H]1c1ccc(F)cc1 + CNCc1ccccc1-c1csc(C(C)Nc2nc(C)nc3cc(OC)c(OC)cc23)c1", "true"],
  ["CC(C)n1nc(-c2ccc3oc(N)nc3c2)c2c(N)ncnc21 + C=CC(=O)N1CCN(c2nc(=O)n(-c3c(C)ccnc3C(C)C)c3nc(-c4c(O)cccc4F)c(F)cc23)C(C)C1", "false"],
  ["Cn1ncnc1[C@H]1c2n[nH]c(=O)c3cc(F)cc(c23)N[C@@H]1c1ccc(F)cc1 + C=CC(=O)N1CCN(c2nc(=O)n(-c3c(C)ccnc3C(C)C)c3nc(-c4c(O)cccc4F)c(F)cc23)C(C)C1", "false"],
  ["CN(C)C/C=C/C(=O)Nc1cc2c(Nc3ccc(F)c(Cl)c3)ncnc2cc1O[C@H]1CCOC1 + C=CC(=O)N1CCN(c2nc(=O)n(-c3c(C)ccnc3C(C)C)c3nc(-c4c(O)cccc4F)c(F)cc23)C(C)C1", "false"],
  ["Cn1ncnc1[C@H]1c2n[nH]c(=O)c3cc(F)cc(c23)N[C@@H]1c1ccc(F)cc1 + COc1cc2nc(C)nc(NC(C)c3cc(N)cc(C(F)(F)F)c3)c2cc1OC1CCOC1", "false"],
  ["CC(=O)Nc1cccc(-n2c(=O)n(C3CC3)c(=O)c3c(Nc4ccc(I)cc4F)n(C)c(=O)c(C)c32)c1 + CNCc1ccccc1-c1csc(C(C)Nc2nc(C)nc3cc(OC)c(OC)cc23)c1", "true"],
  ["CN(C)C/C=C/C(=O)Nc1cc2c(Nc3ccc(F)c(Cl)c3)ncnc2cc1O[C@H]1CCOC1 + COc1cc2nc(C)nc(NC(C)c3cc(N)cc(C(F)(F)F)c3)c2cc1OC1CCOC1", "false"]
]}

###

Catalogue of pIC50 values
- Test system: KRAS PDC tumor spheroids (HUVEC+MSC), viability
- ASSAY PROTOCOL: Anticancer human tumor 254851-301-R-J1-PDC cell line growth inhibition [KRAS2];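 further: spheroids exposed to compounds for seven days before readout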
- CONDITION LABEL: curve of first compound; second compound 1 µM
pIC50: −log10 of the molar value.
MEASUREMENT LABEL: pIC50

{"columns": ["COMPOUND", "COMPARISON OPERATOR", "ASSAY VALUE"],
 "data": [
  ["COC(=O)c1ccc2c(C(=Nc3ccc(N(C)C(=O)CN4CCN(C)CC4)cc3)c3ccccc3)c(O)[nH]c2c1 + COc1cc2nc(C)nc(NC(C)c3cc(N)cc(C(F)(F)F)c3)c2cc1OC1CCOC1", "<", 5.00],
  ["COc1cc2nccc(Oc3ccc(NC(=O)C4(C(=O)Nc5ccc(F)cc5)CC4)cc3)c2cc1OC + C=CC(=O)N1CCN(c2nc(OCC3CCCN3C)nc3c2CCN(c2cccc4cccc(C)c24)C3)CC1CC#N", "=", 5.17],
  ["CC1COCCN1c1cc(-c2ccnn2C)c2ccnc(-c3ccn[nH]3)c2n1 (stereo not given) + COc1cc2nc(C)nc(NC(C)c3cc(N)cc(C(F)(F)F)c3)c2cc1OC1CCOC1", "=", 6.46],
  ["COc1cc(Nc2ncc3c(n2)-c2ccc(Cl)cc2C(c2c(F)cccc2OC)=NC3)ccc1C(=O)O + CC1OCC2(CCN(c3cnc(Sc4ccnc(N)c4Cl)c(N)n3)CC2)C1N", "=", 7.12],
  ["CC(=O)OC12COC1CC(O)C1(C)C(=O)C(O)C3=C(C)C(OC(=O)C(O)C(NC(=O)OC(C)(C)C)c4ccccc4)CC(O)(C(OC(=O)c4ccccc4)C21)C3(C)C (stereo not given) + COc1cc2nc(C)nc(NC(C)c3cc(N)cc(C(F)(F)F)c3)c2cc1OC1CCOC1", "=", 6.78],
  ["COc1cc(Nc2ncc3c(n2)-c2ccc(Cl)cc2C(c2c(F)cccc2OC)=NC3)ccc1C(=O)O + COc1cc2nc(C)nc(NC(C)c3cc(N)cc(C(F)(F)F)c3)c2cc1OC1CCOC1", "=", 7.09],
  ["COc1cc2nccc(Oc3ccc(NC(=O)C4(C(=O)Nc5ccc(F)cc5)CC4)cc3)c2cc1OC + COc1cc2nc(C)nc(NC(C)c3cc(N)cc(C(F)(F)F)c3)c2cc1OC1CCOC1", "<", 5.00],
  ["CC1OCC2(CCN(c3cnc(Sc4ccnc(N)c4Cl)c(N)n3)CC2)C1N (stereo not given) + C=CC(=O)N1CCN(c2nc(OCC3CCCN3C)nc3c2CCN(c2cccc4cccc(C)c24)C3)CC1CC#N", "<", 5.00],
  ["CC1COCCN1c1cc(-c2ccnn2C)c2ccnc(-c3ccn[nH]3)c2n1 (stereo not given) + C=CC(=O)N1CCN(c2nc(OCC3CCCN3C)nc3c2CCN(c2cccc4cccc(C)c24)C3)CC1CC#N", "=", 7.08],
  ["Cn1ncnc1[C@H]1c2n[nH]c(=O)c3cc(F)cc(c23)N[C@@H]1c1ccc(F)cc1 + COc1cc2nc(C)nc(NC(C)c3cc(N)cc(C(F)(F)F)c3)c2cc1OC1CCOC1", "<", 7.00],
  ["CCNC(=O)CC1N=C(c2ccc(Cl)cc2)c2cc(OC)ccc2-n2c(C)nnc21 (stereo not given) + C=CC(=O)N1CCN(c2nc(OCC3CCCN3C)nc3c2CCN(c2cccc4cccc(C)c24)C3)CC1CC#N", "=", 5.44],
  ["Cn1nccc1Nc1nccc(-c2cc3c(s2)C(C)(C)N(CCN2CCOCC2)C3=O)n1 + C=CC(=O)N1CCN(c2nc(=O)n(-c3c(C)ccnc3C(C)C)c3nc(-c4c(O)cccc4F)c(F)cc23)C(C)C1", "=", 5.59],
  ["COC(=O)c1ccc2c(C(=Nc3ccc(N(C)C(=O)CN4CCN(C)CC4)cc3)c3ccccc3)c(O)[nH]c2c1 + C=CC(=O)N1CCN(c2nc(OCC3CCCN3C)nc3c2CCN(c2cccc4cccc(C)c24)C3)CC1CC#N", "<", 5.00],
  ["Cn1ncnc1[C@H]1c2n[nH]c(=O)c3cc(F)cc(c23)N[C@@H]1c1ccc(F)cc1 + C=CC(=O)N1CCN(c2nc(=O)n(-c3c(C)ccnc3C(C)C)c3nc(-c4c(O)cccc4F)c(F)cc23)C(C)C1", "<", 7.00],
  ["CC(C)n1nc(-c2ccc3oc(N)nc3c2)c2c(N)ncnc21 + C=CC(=O)N1CCN(c2nc(OCC3CCCN3C)nc3c2CCN(c2cccc4cccc(C)c24)C3)CC1CC#N", "=", 7.85],
  ["CC1OCC2(CCN(c3cnc(Sc4ccnc(N)c4Cl)c(N)n3)CC2)C1N (stereo not given) + COc1cc2nc(C)nc(NC(C)c3cc(N)cc(C(F)(F)F)c3)c2cc1OC1CCOC1", "<", 5.00],
  ["CC(=O)OC12COC1CC(O)C1(C)C(=O)C(O)C3=C(C)C(OC(=O)C(O)C(NC(=O)OC(C)(C)C)c4ccccc4)CC(O)(C(OC(=O)c4ccccc4)C21)C3(C)C (stereo not given) + C=CC(=O)N1CCN(c2nc(=O)n(-c3c(C)ccnc3C(C)C)c3nc(-c4c(O)cccc4F)c(F)cc23)C(C)C1", "=", 6.61],
  ["Cn1ncnc1[C@H]1c2n[nH]c(=O)c3cc(F)cc(c23)N[C@@H]1c1ccc(F)cc1 + CC1OCC2(CCN(c3cnc(Sc4ccnc(N)c4Cl)c(N)n3)CC2)C1N", "<", 7.00],
  ["O=C(c1cc(Cc2n[nH]c(=O)c3ccccc23)ccc1F)N1CCN(C(=O)C2CC2)CC1 + COc1cc2nc(C)nc(NC(C)c3cc(N)cc(C(F)(F)F)c3)c2cc1OC1CCOC1", "<", 5.00],
  ["CC1OCC2(CCN(c3cnc(Sc4ccnc(N)c4Cl)c(N)n3)CC2)C1N (stereo not given) + CNCc1ccccc1-c1csc(C(C)Nc2nc(C)nc3cc(OC)c(OC)cc23)c1", "<", 5.00]
]}
